Documented flash point across a set of compounds
Express it in °C; write the number only.

C=CC(=O)OCCCCCC [hexyl prop-2-enoate] : 68.00

IN: What does the data say about its flash point? Entry: Cc1ccccc1OCC1CO1 (stereo unspecified) [2-[(2-methylphenoxy)methyl]oxirane]
OUT: 93.00

IN: Can you check CC1CCC(C(C)(C)OO)CC1 (stereo unspecified) [1-(2-hydroperoxypropan-2-yl)-4-methylcyclohexane] next?
OUT: 53.00

IN: Can you check Oc1ccccc1-c1ccccc1 [2-phenylphenol] next?
OUT: 124.00

IN: Can you check CC(=O)CC(C)C [4-methylpentan-2-one] next?
OUT: 23.00

IN: Can you check CCCCCCCCCC(C)=O [undecan-2-one] next?
OUT: 89.00

IN: Can you check CCCCCCO [hexan-1-ol] next?
OUT: 63.00

IN: Can you check CCSC(=O)N1CCCCCC1 [S-ethyl azepane-1-carbothioate] next?
OUT: 139.00

IN: Can you check CC(C)C(O)C(C)(C)CO (stereo unspecified) [2,2,4-trimethylpentane-1,3-diol] next?
OUT: 113.00

IN: Can you check Nc1ccccc1O [2-aminophenol] next?
OUT: 168.00

IN: Can you check CN(C)CCC#N [3-(dimethylamino)propanenitrile] next?
OUT: 64.00

---

Documented flash point across a set of compounds
Express it in °C; write the number only.

C1CCC(C2CCCCC2)CC1 : 74.00
CCCCCCCC/C=C\CCCCCCCC(=O)O : 189.00
O=C1c2ccccc2C(=O)c2ccccc21 : 185.00

IN: What does the data say about its flash point? Entry: CCCCCCC(C)O (centres undefined)
OUT: 88.00

IN: Can you check `c1ccc(C2CCCCC2)cc1` next?
OUT: 99.00

---

Documented flash point across a set of compounds
Reply with a number, then the unit it belongs to.

Below, each entry is followed by its recorded flash point result.
CCC(C)C(C)(C)CC (configuration not stated) [3,3,4-trimethylhexane] : 15 °C
C#CCCCCCCCCCC [1-dodecyne] : 79 °C
CC(=O)OCCc1ccccc1 [2-phenylethylacetate] : 102 °C
COC(=O)c1ccccc1C(=O)OC [dimethylphthalate] : 150 °C
C[C@H]1CC[C@H](C)CC1 [trans-1,4-dimethylcyclohexane] : 6 °C
N#CCc1ccccc1 [benzylcyanide] : 101 °C
CCCCCC(O)CC (configuration not stated) [3-octanol] : 68 °C
CC=CC#N [2-butenenitrile] : 17 °C
CCCCCCCS [1-heptanethiol] : 46 °C
CCC(Br)CC [3-bromopentane] : 19 °C

IN: What does the data say about its flash point? Entry: CN(CCO)CCO [N-methyldiethanolamine]
OUT: 137 °C

IN: Can you check CCCCC(=O)CC [3-heptanone] next?
OUT: 38 °C

---

Where a name gives a salt, the structure may show the parent alone.
Documented flash point across a set of compounds
Express it in °C; write the number only.

Below, each entry is followed by its recorded flash point result.
O=Cc1ccccc1O [2-hydroxybenzaldehyde] : 78.00
CN(C)CCO [2-(dimethylamino)ethanol] : 41.00
CC(C)Nc1ccc(Nc2ccccc2)cc1 [1-N-phenyl-4-N-propan-2-ylbenzene-1,4-diamine] : 151.00
Cc1cccc([N+](=O)[O-])c1C [1,2-dimethyl-3-nitrobenzene] : 107.00
C=C(C)[C@H]1CC=C(C)CC1 [(4R)-1-methyl-4-prop-1-en-2-ylcyclohexene] : 48.00

IN: What does the data say about its flash point? Entry: Cc1ccc(N)c(C)c1 [2,4-dimethylaniline]
OUT: 96.00

IN: Can you check C=CC(=O)OCC(C)(C)COC(=O)C=C [(2,2-dimethyl-3-prop-2-enoyloxypropyl) prop-2-enoate] next?
OUT: 115.00

IN: Can you check C=C(Cl)CCl [2,3-dichloroprop-1-ene] next?
OUT: 10.00

IN: Can you check Cc1cccc(C)c1 [1,3-xylene] next?
OUT: 29.00

IN: Can you check CCCSSCCC [1-(propyldisulfanyl)propane] next?
OUT: 66.00

IN: Can you check O=CC(Cl)=C(Cl)C(=O)O [2,3-dichloro-4-oxobut-2-enoic acid] next?
OUT: 100.00

IN: Can you check Cc1ccc2ccccc2c1 [2-methylnaphthalene] next?
OUT: 98.00

IN: Can you check Nc1cc(Cl)ccc1Cl [2,5-dichloroaniline] next?
OUT: 113.00

IN: Can you check Cc1cccc(OP(=O)(Oc2cccc(C)c2)Oc2cccc(C)c2)c1 [tris(3-methylphenyl) phosphate] next?
OUT: 210.00

IN: Can you check CC(C)C(C)C [2,3-dimethylbutane] next?
OUT: -29.00

IN: Can you check C1CCOCC1 [oxane] next?
OUT: -20.00

IN: Can you check NNc1ccccc1 [phenylhydrazine] next?
OUT: 88.00

IN: Can you check C=C(C)CO [2-methylprop-2-en-1-ol] next?
OUT: 33.00

IN: Can you check OC(CCl)CCl [1,3-dichloropropan-2-ol] next?
OUT: 74.00

IN: Can you check C1CCNCC1 [piperidine] next?
OUT: 3.00

IN: Can you check CC1=C(C(=O)Nc2ccccc2)SCCO1 [6-methyl-N-phenyl-2,3-dihydro-1,4-oxathiine-5-carboxamide] next?
OUT: 203.00

IN: Can you check O=COCCOC=O [2-formyloxyethyl formate] next?
OUT: 93.00

---

Please note: flash point exactly at 60 °C is Not met. Only values below 60 °C get Met.

# example entries with known answers
CCCCCCCCCCCCCCCCCCC [Nonadecane] : Not met
CC(C)CCCCC(C)C [Octane, 2,7-dimethyl-] : Met
CCCCCCCCOC(C)=O [Acetic acid octyl ester] : Not met
CCCCCCCC(C)=O [2-Nonanone] : Not met
C=CC(=O)OCC(C)C [Isobutyl acrylate] : Met
CCCCC(=O)CCCC [5-Nonanone] : Not met

As a next step, examine the compound that follows.
IN: flash point strictly < 60 °C for this compound? COC(C)=O [METHYL ACETATE]
OUT: Met

---

Documented flash point across a set of compounds
Express it in °C; write the number only.

Below, each entry is followed by its recorded flash point result.
C=CCCCC=C : -10
CCCC(C)CC (configuration not stated) : -15
O=[N+]([O-])C1CCCCC1 : 81

IN: What does the data say about its flash point? Entry: C=COC(=O)CCC [vinylbutanoate]
OUT: 20

IN: Can you check `Cc1cc(C)cc(C)c1` next?
OUT: 44

IN: Can you check `CC(C)C(C)(C)C(C)C` next?
OUT: 11

IN: Can you check `CC(C)CC(=O)O` next?
OUT: 74

IN: Can you check `CCCCCCCCC(=O)CC` next?
OUT: 89

IN: Can you check CCCCCOC(=O)CC [pentylpropanoate] next?
OUT: 53

---

Class field: derived from flash point; ranges lowest = under 20 °C, middle = from 20 °C up to 60 °C, highest = 60 °C and over

# example entries with known answers
C=CC(=O)OC1CCCCC1 [cyclohexylacrylate] : highest
CCCCCCCc1ccccc1 : highest
CCCCCCCCCCCCOC(C)=O [dodecylacetate] : highest
C=CC1CCCCC1 : middle
CCCCCCCC(C)O (configuration not stated) : highest
CCCOC(=O)C(C)C [propyl2-methylpropanoate] : middle
CC(=O)OCCC(C)C [isopentylacetate] : middle
CCCCNCCCC : middle
CC#CCCCC : lowest
CCC(CC)C(=O)O : highest

IN: Any idea which band `C#CCO` is in?
OUT: middle

IN: Can you check `SC1CCCCC1` next?
OUT: middle

IN: Can you check CC(C)CCOC=O [isopentylformate] next?
OUT: middle

IN: Can you check CCCNCCO [(2-hydroxyethyl)propylamine] next?
OUT: highest

IN: Can you check `CCC1CCCCC1` next?
OUT: lowest

IN: Can you check `CCOC(OCC)OCC` next?
OUT: middle

---

Documented flash point across a set of compounds
Express it in °C; write the number only.

Below, each entry is followed by its recorded flash point result.
NCc1ccccc1 : 76.00
Oc1ccc2ccccc2c1 : 153.00
Cc1cc(C)cc(C)c1 : 50.00
CC(=O)OCc1ccco1 [furan-2-ylmethyl acetate] : 66.00

IN: What does the data say about its flash point? Entry: CC(C)OCC1CO1 (configuration not stated)
OUT: 33.00

IN: Can you check CCOC(=O)c1ccccc1C(=O)OCC [diethyl benzene-1,2-dicarboxylate] next?
OUT: 140.00

IN: Can you check `O=Cc1c(Cl)cccc1Cl` next?
OUT: 135.00

IN: Can you check `O=CC(Cl)Cl` next?
OUT: 60.00

IN: Can you check C(OCC1CO1)C1CO1 (configuration not stated) next?
OUT: 64.00

IN: Can you check `CCCCCCCCCCCCCCCC` next?
OUT: 135.00

IN: Can you check `CCCOCCO` next?
OUT: 49.00

IN: Can you check `CN=C=O` next?
OUT: -7.00

IN: Can you check CCCCCCCCCCOC(=O)c1ccccc1C(=O)OCCCCCCCC [2-O-decyl 1-O-octyl benzene-1,2-dicarboxylate] next?
OUT: 235.00
